- Measured On: Myc-Max complex (Homo sapiens, UniProt P01106+P61244)
- Construct: GST tagged Myc (residues 368-454); Histidine tagged Max (residues 23-102); made in house; host or cells: E. coli BL21-DE3
- Sequence (P01106 368-454): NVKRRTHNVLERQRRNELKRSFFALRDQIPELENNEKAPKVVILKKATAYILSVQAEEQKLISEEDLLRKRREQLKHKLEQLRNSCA
- Sequence (P61244 23-102): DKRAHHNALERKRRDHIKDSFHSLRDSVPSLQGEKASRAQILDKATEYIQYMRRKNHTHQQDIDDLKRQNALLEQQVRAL
- Measurement Protocol: Biolayer interferometry of Myc-Max binding to biotinylated E-box DNA
- Experimental Conditions: TABLE 2
Observable: BLI binding

>>> df
                                   compound   observable  result
0  FC(F)(F)c1cc(NC(=S)NCc2ccccc2)cc(C(F)(F)F)c1  BLI binding  strong
1  CC(=O)Nc1ccc(Nc2cc(Cl)c(C(F)(F)F)cc2[N+](=O)[O-])cc1  BLI binding    weak
2  CC(C)C[C@H](NC(=O)C(Cc1ccccc1)NC(=O)CNC(=O)[C@H](C)NC(=O)[C@@H](N)Cc1ccc(O)cc1)C(=O)OCc1ccccc1 (stereo partly drawn)  BLI binding    weak
3         O=C1NC(=S)S/C1=C\c1ccccc1C(F)(F)F  BLI binding  strong

Prompt: What does the data say about its BLI binding? Entry: O=C(NNc1ccc(C(F)(F)F)cc1[N+](=O)[O-])c1cnccn1
Completion: weak

* * *

Listed here: items and their measured inhibition at 12.5 µM.
- Tested on: Myc-Max transcriptional activity
- Measurement Protocol: Cignal c-Myc luciferase reporter assay in LNCaP cells
- Format: cell-based
- Experimental Conditions: Homo sapiens, LNCaP, 12.5 μM, TABLE 3
Just the number in %, nothing appended.

Some compounds with known inhibition at 12.5 µM results, for comparison:
>>> df
                            smiles_notation  quantitative_readout
0  CC(C)(O)c1ccc(CNC(=S)NCc2cccc(C(F)(F)F)c2)cc1                    95
1      Cc1cc(NC(=S)NCc2ccon2)cc(C(F)(F)F)c1                    73
2       Fc1ccc(NC(=S)NCc2ccccc2)cc1C(F)(F)F                   101
3        NC(=O)NCc1ccc(NC(=S)NCc2ccccc2)cc1                    47
4  O=C(NCCNS(=O)(=O)c1ccccc1)NNC(=O)c1cccc(C(F)(F)F)c1                    75

Prompt: Short answer please: inhibition at 12.5 µM, Myc-Max transcriptional activity, entry Cc1c(Cl)cc(NC(=S)NCc2ccccc2)cc1Cl
Completion: 94

Prompt: Subsequent entry: O=C(CCNC(=O)c1cccc(C(F)(F)F)c1)NCc1ccccc1
Completion: 71

Prompt: Query FC(F)(F)c1cccc(NC(=S)NCc2ccccc2C(F)(F)F)c1 next
Completion: 95

* * *

- System: LNCaP cells
- Measurement Protocol: PARP cleavage (apoptosis) by Western blot in LNCaP cells
- Assay type: cell-based
- Experimental Conditions: TABLE 2, LNCaP cells
Observable: PARP effect

// solved cases for PARP effect follow
Molecule	Result
S=C(NCc1ccncc1)Nc1cc(Cl)cc(Cl)c1 [VPC-70084]	weak
O=C1NC(=S)S/C1=C\c1ccccc1C(F)(F)F [VPC-70067]	good
O=C(NNc1ccc(C(F)(F)F)cc1[N+](=O)[O-])c1cnccn1 [VPC-70127]	strong
CC(=O)Nc1ccc(Nc2cc(Cl)c(C(F)(F)F)cc2[N+](=O)[O-])cc1 [VPC-70033]	nil
NC(=O)c1ccsc1NC(=O)Nc1cccc(C(F)(F)F)c1 [VPC-70021]	nil

Prompt: Report PARP effect for FC(F)(F)c1cc(NC(=S)NCc2ccccc2)cc(C(F)(F)F)c1 [VPC-70063] please.
Completion: strong

Prompt: Same read-out for O=C(NCc1cnn(Cc2ccccc2)c1)[C@@H]1COc2ccccc2O1 [VPC-70215] ?
Completion: weak

Prompt: Would you mind doing CC(C)C[C@H](NC(=O)C(Cc1ccccc1)NC(=O)CNC(=O)[C@H](C)NC(=O)[C@@H](N)Cc1ccc(O)cc1)C(=O)OCc1ccccc1 (stereo partly drawn) [VPC-70413] as well?
Completion: weak

* * *

- Test system: Myc-Max transcriptional activity
- Measurement Protocol: Cignal c-Myc luciferase reporter assay in LNCaP cells
- Format: cell-based
- Experimental Conditions: Homo sapiens, LNCaP, 24 h, 25 μM, LNCaP cells, TABLE 1; read-out: Myc-Max transcriptional activity % inhibition (25 μM)
Below, each entry is listed alongside its reported inhibition at 25 µM.
Express your answer in %, writing the number without its unit.

>>> df
                                   molecule           observable  quantitative_readout
0  CC(=O)Nc1ccc(Nc2cc(Cl)c(C(F)(F)F)cc2[N+](=O)[O-])cc1 [VPC-70033]  inhibition at 25 µM                    81

Prompt: For the molecule O=C1NC(=S)S/C1=C\c1ccccc1C(F)(F)F [VPC-70067] , what inhibition at 25 µM is on record?
Completion: 98

Prompt: Moving on to CS(=O)(=O)Nc1ccccc1C(=O)OCc1cc(=O)oc2cc(O)ccc12 [VPC-70027]
Completion: 53

Prompt: Thanks! And O=C1/C(=C/c2cccs2)SC(=S)N1c1cccc(O)c1 [VPC-70005] ?
Completion: 65

Prompt: What about this molecule? CC(C)(C)[C@H]1CCc2sc(C(=O)N3CCC(C(N)=O)CC3)cc2C1 [VPC-70068]
Completion: 73

Prompt: Another molecule: NC(=O)c1ccsc1NC(=O)Nc1cccc(C(F)(F)F)c1 [VPC-70021]
Completion: 95

Prompt: Query O=C(CN1C(=O)NC2(CCCC2)C1=O)Nc1cccc(C(F)(F)F)c1 [VPC-70066] next
Completion: 65

Prompt: Proceed to FC(F)(F)c1cc(NC(=S)NCc2ccccc2)cc(C(F)(F)F)c1 [VPC-70063]
Completion: 106

Prompt: And then S=C(NCc1ccc(Cl)c(Cl)c1)Nc1cccnc1 [VPC-70053] , what is it?
Completion: 73

Prompt: Queued: CN1C(=O)/C(=C\C=C\c2ccco2)SC1=S [VPC-70064]
Completion: 78

Prompt: Moving on to O=[N+]([O-])c1ccc(Nc2ccccc2-c2ccccc2)c2nonc12 [Compound 10074-G5, reference compound]
Completion: 88
